# targetDesc: human adenosine A2A receptor (Homo sapiens, UniProt P29274)
# Sequence (P29274 whole entry): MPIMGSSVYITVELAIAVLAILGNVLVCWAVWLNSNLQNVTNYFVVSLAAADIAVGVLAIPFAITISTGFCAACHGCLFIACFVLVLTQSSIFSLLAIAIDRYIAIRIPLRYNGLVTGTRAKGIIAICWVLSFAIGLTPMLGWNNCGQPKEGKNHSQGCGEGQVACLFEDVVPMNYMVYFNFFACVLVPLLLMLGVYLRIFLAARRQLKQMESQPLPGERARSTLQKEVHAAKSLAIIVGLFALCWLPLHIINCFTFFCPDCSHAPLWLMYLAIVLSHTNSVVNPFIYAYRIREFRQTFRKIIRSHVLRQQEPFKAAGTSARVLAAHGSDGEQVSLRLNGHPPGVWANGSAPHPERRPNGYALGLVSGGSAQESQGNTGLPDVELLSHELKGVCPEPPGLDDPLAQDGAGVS
# assayExplanation: Adenosine A2A Receptor Functional Assay (A2AGAL2)
# experimentalConditions: CHO-K1 cells overexpressing human A2A receptor, cAMP inducible beta-galactosidase reporter, 15 nM NECA agonist challenge
readout: pIC50
Scale: negative log10 of molar concentration, which is what pIC50 denotes.

Input COc1ccc(OC2CCN(c3cccc4c3-c3nc(N)nc(-c5ccccc5)c3C4=O)CC2)cc1 [Example A] . Output pIC50: 8.64
